Data origin, for the record: paper doi:10.1101/2021.02.22.432362v1

Test Target: BRD9 (Homo sapiens)
Sequence (Q9H8M2 134-239 limits assumed): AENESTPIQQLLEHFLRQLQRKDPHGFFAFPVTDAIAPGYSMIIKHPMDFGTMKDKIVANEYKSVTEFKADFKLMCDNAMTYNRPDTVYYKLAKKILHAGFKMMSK
pIC50: −log10 of the molar value.
Please provide measured pIC50 for the entries that follow.

Req: Test system BRD9 (Homo sapiens); read-out pIC50; what value for `COc1cc(CN(C)C)cc(OC)c1-c1cn(C)c(=O)c2cnccc12` ?
Resp: < 5.00

Req: Entry `COc1ccc2ccccc2c1-c1cn(C)c(=O)c2cnccc12` , system BRD9 (Homo sapiens): what pIC50 was measured?
Resp: < 5.00
